Test system: CD8+ T cells of healthy HLA-A*02+ donors
Test Summary: In vitro priming of CD8+ T cells with pMHC/anti-CD28 coated beads (high density), tetramer analysis
Type: cell-based, human
Reported Conditions: high density beads
Ends that are not written are not given here.
Assay Metric: Positive wells/wells tested (%)

# Substance, Assay Metric, Experimental Result
records = [
    ("ILAPVILYI [NOX-001]", "Positive wells/wells tested (%)", "(15%)"),
    ("ALSNLEVTL [Peptide C20-001]", "Positive wells/wells tested (%)", "(2%)"),
    ("CCN-001: 9 amino acid peptide in vaccine IMA910, supplied as chloride salt (LLGATCMFV; also: chloride salt) [reference compound]", "Positive wells/wells tested (%)", "(78%)"),
    ("ALFVRLLALA [TGFBI-001]", "Positive wells/wells tested (%)", "(18%)"),
    ("KIFDEILVNA [TOP-001]", "Positive wells/wells tested (%)", "(10%)"),
    ("KLMDLDVEQL [PCN-001]", "Positive wells/wells tested (%)", "(10%)"),
]

---

Test system: CD8+ T cells of healthy HLA-A*02+ donors
Test Summary: In vitro priming of CD8+ T cells with pMHC/anti-CD28 coated beads (high density), tetramer analysis
Type: cell-based, human
Reported Conditions: high density beads
Ends that are not written are not given here.
Positive donors/donors tested overview
Assay Metric: Positive donors/donors tested

# Substance, Experimental Result
data = [
    ("ALFVRLLALA [TGFBI-001]", "3/4"),
    ("KIFDEILVNA [TOP-001]", "2/5"),
    ("KLMDLDVEQL [PCN-001]", "3/4"),
    ("CCN-001: 9 amino acid peptide in vaccine IMA910, supplied as chloride salt (LLGATCMFV; also: chloride salt) [reference compound]", "5/5"),
    ("ALSNLEVTL [Peptide C20-001]", "1/5"),
    ("ILAPVILYI [NOX-001]", "3/5"),
]
